# System: HCT-15 colon
# EXPERIMENTAL PROTOCOL: NCI tumour cell line growth inhibition, 48 h
PROPERTY: TGI

- MOLECULE: "CCc1ccc(NC(=O)COC(=O)c2cc([N+](=O)[O-])ccc2Sc2nnnn2C)cc1"
  TGT: "HCT-15 colon"
  PROPERTY: "TGI"
  RECORDED RESULT: "37.3 µM"
- MOLECULE: "CC1(c2ccc[n+](Cc3ccccc3)c2)OCCO1"
  TGT: "HCT-15 colon"
  PROPERTY: "TGI"
  RECORDED RESULT: "> 100 µM"
- MOLECULE: "C=C1C(=O)OC2C1C(OC(=O)/C(C)=C/C)CC(O)(CCl)C1C(O)C3OC3(C)C21O (stereo not given)"
  TGT: "HCT-15 colon"
  PROPERTY: "TGI"
  RECORDED RESULT: "> 50 µM"
- MOLECULE: "O=C(NN1C(=O)CSC12CCCC2)c1[nH]c2ccc(Br)cc2c1-c1ccccc1"
  TGT: "HCT-15 colon"
  PROPERTY: "TGI"
  RECORDED RESULT: "> 100 µM"
- MOLECULE: "COC(=O)C1=C(c2cc(OC)c(OC)c(OC)c2)OC(c2ccc(OC)c(OC)c2)C1 (stereo not given)"
  TGT: "HCT-15 colon"
  PROPERTY: "TGI"
  RECORDED RESULT: "> 100 µM"

----------
# Test system: MDA-MB-435
# EXPERIMENTAL PROTOCOL: NCI tumour cell line growth inhibition, 48 h

- MOLECULE: "CCN(CC)c1ccc2cc(C(=O)Nc3cccc4ccccc34)c(=N)oc2c1"
  TGI: "> 100 µM"
- MOLECULE: "COc1ccc(OC)c(-c2c(C#N)c(N)nc(N3CCOCC3)c2C#N)c1"
  TGI: "> 100 µM"
- MOLECULE: "CN1CC[C@@H](c2c(O)cc(O)c3c(=O)cc(-c4ccccc4Cl)oc23)[C@@H]1CO"
  TGI: "1.1 µM"
- MOLECULE: "C/C=C(/COC(C)=O)C(=O)OC1C=C(C=O)C(C)(C)C=C1C (centres undefined)"
  TGI: "> 100 µM"
- MOLECULE: "CCSCCCN(CCCSCC)CCCSCC"
  TGI: "> 100 µM"
- MOLECULE: "C/C=C(\\C)C(=O)O[C@H]1C=CC(=O)O[C@@H]1CC[C@H](O)[C@H](C)O"
  TGI: "> 100 µM"
- MOLECULE: "CC1(C)CC(=O)c2c(nc3ccc4ccccc4c3c2-c2ccc(NC(=O)CCCCCCCCC(=O)Nc3ccc(-c4c5c(nc6ccc7ccccc7c46)CC(C)(C)CC5=O)cc3)cc2)C1"
  TGI: "> 100 µM"
- MOLECULE: "CCOC(=O)c1cc2c3c(c(C(C)=O)c(O)c2[nH]1)N(CC(C)CC)CC3 (centres undefined)"
  TGI: "> 100 µM"
- MOLECULE: "Cc1ccc(CNc2c3ccccc3nc3cc(NC(=O)CCN4CCCC4)ccc23)cc1"
  TGI: "2.62 µM"
- MOLECULE: "Cn1cc(C2=C(c3cccc(OCC(O)CO)c3)C(=O)NC2=O)c2ccccc21 (centres undefined)"
  TGI: "> 25 µM"
- MOLECULE: "O=C(Nc1cccc(NC(=O)Nc2cc(C(F)(F)F)ccc2Cl)c1)Nc1cc(C(F)(F)F)ccc1Cl"
  TGI: "> 100 µM"
- MOLECULE: "CCN(CC)Cc1ccc(Nc2nccc(-c3cnn4ncccc34)n2)cc1"
  TGI: "0.0945 µM"
- MOLECULE: "CCCCCC(C)SC1(C(=O)OC)CC(OC(C)=O)C(NC(C)=O)C([C@H](OC(C)=O)[C@@H](COC(C)=O)OC(C)=O)O1 (some centres undefined)"
  TGI: "> 100 µM"
- MOLECULE: "O=c1c2cc(I)ccc2nc(-c2cccs2)n1-c1ccc(O)cc1"
  TGI: "30.8 µM"
- MOLECULE: "COc1ccc(/C=C2\\CCCC3=C2NC(N)=NC3c2ccc(OC)c(OC)c2)cc1OC (centres undefined)"
  TGI: "> 100 µM"
- MOLECULE: "COc1ccc2c(c1)c(CC(=O)O)c(C)n2C(=O)c1ccc(Cl)cc1"
  TGI: "> 100 µM"
- MOLECULE: "CSC1=N/C(=C\\c2ccco2)C(=O)N1CN1CCOCC1"
  TGI: "> 100 µM"
- MOLECULE: "COc1cc(/C=C2\\Sc3scc(-c4cccc([N+](=O)[O-])c4)[n+]3C2=O)cc(OC)c1OC"
  TGI: "25.2 µM"
- MOLECULE: "O=c1[nH]nc(-c2ccccc2)n1/N=C/c1cccnc1"
  TGI: "> 100 µM"
- MOLECULE: "O=C(NC[C@H](O)CO)c1ccncc1Nc1ccc(I)cc1F"
  TGI: "> 100 µM"
- MOLECULE: "COC(=O)c1c(O)ccc2c1c1c(n2Cc2cccc(C)c2)C(=O)c2ccccc2C1=O"
  TGI: "23.3 µM"
- MOLECULE: "CCCCN(CCCC)c1ccc(C(=N)c2ccc(N(CCCC)CCCC)cc2)cc1"
  TGI: "2.21 µM"
- MOLECULE: "N#Cc1ccccc1-c1nc2c3c(c(N)ccc3n1)C(=O)c1ccccc1-2"
  TGI: "> 100 µM"
- MOLECULE: "O=c1cc(N2CCN(c3cc(=O)n4ccccc4n3)CC2)oc2ccccc12"
  TGI: "> 100 µM"

----------
Each item that follows carries a reported TGI.
# Tested on: NCI-H226 lung
# EXPERIMENTAL PROTOCOL: NCI tumour cell line growth inhibition, 48 h

- MOLECULE: "CC1CC/C(=C\\c2ccc(Cl)cc2)C2OC(N)=C(C#N)C(c3ccc(Cl)cc3)=C12 (stereo unspecified)"
  TGI: "27.1 µM"
- MOLECULE: "CC(C)c1cccc2sc(NC(=O)C(=O)C(C#N)c3cccc4ccccc34)nc12 (stereo unspecified)"
  TGI: "> 100 µM"
- MOLECULE: "COc1ccc(-c2cc(-c3ccc(Nc4ccnc5cc(Cl)ccc45)cc3)[nH]c(=O)c2C#N)c2ccccc12"
  TGI: "> 100 µM"
- MOLECULE: "CN(C(=O)c1ccco1)C(=S)N1CCN(c2ccccc2)CC1"
  TGI: "> 100 µM"
- MOLECULE: "COc1cccc(-n2ncc3c(N/N=C/c4ccncc4)ncnc32)c1"
  TGI: "> 25 µM"
- MOLECULE: "O=C1c2ccccc2-c2c1c1ccccc1c(=O)n2CCN1CCOCC1"
  TGI: "> 100 µM"
- MOLECULE: "O=c1c2cc(I)ccc2nc(-c2cccs2)n1-c1ccc(O)cc1"
  TGI: "35.9 µM"
- MOLECULE: "O=C(COc1ccc(/C=C2\\Oc3ccccc3C2=O)cc1)Nc1nc2c(s1)CCCC2"
  TGI: "42 µM"
- MOLECULE: "C#CCSC(C=C=C)P(=O)(OC(C)C)OC(C)C (stereo unspecified)"
  TGI: "> 100 µM"
- MOLECULE: "Cc1ccc(S(=O)(=O)Nc2cccc3[nH]c(C(F)(F)F)nc23)cc1"
  TGI: "29.1 µM"
- MOLECULE: "COc1ccc(-n2c(=O)n(C)c(=O)n2-c2ccc(OC)cc2)cc1"
  TGI: "> 100 µM"
- MOLECULE: "Cc1[nH]c2ccccc2c1C1Cc2ccccc2N1C(=O)/C=C/C(=O)O (stereo unspecified)"
  TGI: "> 100 µM"
- MOLECULE: "Cc1cccc(C(C)C)c1NC(=O)CC1C(=O)Nc2ccccc2S1(=O)=O (stereo unspecified)"
  TGI: "49.9 µM"
- MOLECULE: "COc1ccc(OC)c(-c2c(C#N)c(N)nc(N3CCOCC3)c2C#N)c1"
  TGI: "> 100 µM"
- MOLECULE: "Cc1c(NC(=O)CSC(=S)N2CCN(Cc3ccccc3)CC2)c(=O)n(-c2ccccc2)n1C"
  TGI: "> 100 µM"
- MOLECULE: "O=CN/C=C/c1ccc(O)c(O)c1"
  TGI: "> 100 µM"
- MOLECULE: "COc1ccccc1Cc1nc(-c2ccccc2)nn(C2OC(COC(C)=O)C(OC(C)=O)C(OC(C)=O)C2OC(C)=O)c1=S (stereo unspecified)"
  TGI: "> 95.7 µM"
- MOLECULE: "COC(=O)[C@H]1CO[C@H]2C/C(C)=C/CC/C(C)=C/CC[C@@]3(C)O[C@@H]3C[C@H]21"
  TGI: "29.2 µM"
- MOLECULE: "S=C1SCN(Cc2ccco2)CN1c1ccc(Br)cc1"
  TGI: "69.1 µM"
- MOLECULE: "[N-]=[N+]=NC(CI)c1cn([C@H]2C[C@H](O)[C@@H](CO)O2)c(=O)[nH]c1=O (stereo partly specified)"
  TGI: "> 100 µM"
- MOLECULE: "CC(C)C(OC(=O)c1ccc(NCc2cc(O)ccc2O)cc1)C(C)C"
  TGI: "5.47 µM"
